settings: Liquid
readout: Normal boiling temperature (°C)
Give just the numeric value; °C need not be written.

# annotated cases, reported Normal boiling temperature shown
1) Cc1ccccc1C [1,2-dimethylbenzene] ... 144.40
2) CCC(C)CO (stereo not given) [2-methyl-1-butanol] ... 128.76
3) CCc1ccccc1 [ethylbenzene] ... 136.16
4) Cc1cccc(C)c1 [1,3-dimethylbenzene] ... 139.13

Field: next molecule
Prompt: Please give the measured Normal boiling temperature for this molecule: Cc1ccc(C)cc1 [1,4-dimethylbenzene]
Response: 138.28

====

conditions: 298.15 K; 101.33 kPa; Liquid; Vibrating tube method
readout: mass density (kg/m3)
Return type: number; implicit unit kg/m3.

Worked examples follow.
1) Cc1ccccc1C [1,2-dimethylbenzene] ... 875.81
2) Cc1cccc(C)c1 [1,3-dimethylbenzene] ... 860.06
3) Cc1ccc(C)cc1 [1,4-dimethylbenzene] ... 856.54

Prompt: Return reported mass density; argument: CCc1ccccc1 [ethylbenzene]
Response: 862.57

Prompt: Query (molecule): CCC(C)CO (stereo not given) [2-methyl-1-butanol] ; field requested: mass density
Response: 814.83
